molecular target: Pim-2 stably transfected into the U2OS human osteogenic sarcoma line (Homo sapiens); construct: expressed in transfected cells; host or cells: U2OS human osteogenic sarcoma line; experiment: Pim cell assay, phospho-BAD normalized against total BAD, U2OS stably transfected with Pim-2; assay type: cell-based; conditions: U2OS stably transfected with Pim-2; phospho-BAD normalized against total BAD; 29 min incubation; read-out: Pim2_Cell_IC50_
Sequence (Q9P1W9 whole entry): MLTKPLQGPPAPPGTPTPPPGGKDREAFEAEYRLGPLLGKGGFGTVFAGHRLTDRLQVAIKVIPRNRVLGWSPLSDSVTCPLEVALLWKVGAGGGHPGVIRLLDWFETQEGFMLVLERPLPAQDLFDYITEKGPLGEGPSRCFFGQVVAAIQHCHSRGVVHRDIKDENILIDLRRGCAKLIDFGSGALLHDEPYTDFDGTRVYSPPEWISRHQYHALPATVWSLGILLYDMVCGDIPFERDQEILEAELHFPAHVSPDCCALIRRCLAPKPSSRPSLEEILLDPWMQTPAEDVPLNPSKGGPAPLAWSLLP
pIC50: −log10 of the molar value.
Examples of compounds with documented pIC50 follow.

Reference set, count: 5
COMPOUND: NC1CCN(c2cncc(-c3n[nH]c4ccc(-c5cncc(C6CC6)n5)cc34)n2)CC1 [Example 503]
MEASURED_ON: Pim-2 stably transfected into the U2OS human osteogenic sarcoma line (Homo sapiens)
pIC50: 5.43
--
COMPOUND: COc1cc(OC)cc(-c2ccc3[nH]cc(-c4cncc(O[C@@H]5CCCNC5)n4)c3c2)c1 [Example 294]
MEASURED_ON: Pim-2 stably transfected into the U2OS human osteogenic sarcoma line (Homo sapiens)
pIC50: 5.02
--
COMPOUND: CC(C)Oc1cncc(-c2ccc3[nH]cc(-c4nnc(N5CCC[C@H](N)C5)o4)c3c2)n1 [Example 510]
MEASURED_ON: Pim-2 stably transfected into the U2OS human osteogenic sarcoma line (Homo sapiens)
pIC50: < 4.50
--
COMPOUND: c1cc2[nH]nc(-c3cncc(NC4CC4)n3)c2cc1-c1cncc(C2CC2)n1 [Example 391]
MEASURED_ON: Pim-2 stably transfected into the U2OS human osteogenic sarcoma line (Homo sapiens)
pIC50: < 5.00
--
COMPOUND: Cc1n[nH]c2ncc(-c3ccc4[nH]cc(-c5cncc(O[C@@H]6CCCNC6)n5)c4c3)cc12 [Example 339]
MEASURED_ON: Pim-2 stably transfected into the U2OS human osteogenic sarcoma line (Homo sapiens)
pIC50: < 4.50

Can you look up pIC50 on Pim-2 stably transfected into the U2OS human osteogenic sarcoma line (Homo sapiens) for FC(F)(F)c1ccccc1-c1ccc2[nH]nc(-c3cncc(O[C@H]4CNCCC45CC5)n3)c2c1 [Example 407] ?
< 4.80

What do you have for Nc1cncc(-c2ccc3[nH]nc(-c4cncc(N5CCC(N)CC5)n4)c3c2)n1 [Example 508] ?
< 4.50

Repeat with N#CC1(c2cccc(-c3ccc4[nH]cc(-c5cncc(O[C@@H]6CCCNC6)n5)c4c3)c2)CCC1 [Example 350]
< 4.80

Please give the result for Brc1ccc2[nH]nc(-c3cncc(O[C@@H]4CNCCC45CC5)n3)c2c1 [Example 421] too.
4.50

Please give the result for c1cc2[nH]nc(-c3cncc(O[C@@H]4CCNCC45CC5)n3)c2cc1-c1cncc(C2CC2)n1 [Example 373] too.
5.47

For CC1CCNCC1Oc1cncc(-c2n[nH]c3ccc(-c4c(F)cccc4F)cc23)n1 (single isomer, unassigned) [Example 424] then?
5.61

c1cc2[nH]nc(-c3cncc(OC4CCNCC45CC5)n3)c2cc1-c1cncc(C2CC2)n1 (stereo not shown) [Example 372] , same question.
< 5.00

Further, for CC1CCNCC1Oc1cncc(-c2n[nH]c3ccc(-c4c(F)cccc4F)cc23)n1 (single isomer, unassigned) [Example 423] ?
< 4.50

What do you have for COc1cc(-c2n[nH]c3ccc(-c4c(F)cccc4F)cc23)nc(N2CCC(N)CC2)n1 [Example 506] ?
< 4.50

Param item: FCCOc1cncc(-c2n[nH]c3ccc(-c4cncc(C5CC5)n4)cc23)n1 [Example 384]
< 4.50

Try the compound Fc1cnccc1-c1ccc2[nH]cc(-c3cncc(O[C@@H]4CCCNC4)n3)c2c1 [Example 297]
5.07
